Source listed as PubChem BioAssay (NCI).

The compounds listed here are annotated with their TGI.
# System: SK-MEL-5 melanoma
# protocol summary: NCI tumour cell line growth inhibition, 48 h
measured metric: TGI (µM)

- Cc1ccc(S(=O)(=O)N/N=C2/CC[C@H](C(C)(C)C)C[C@@H]2C)cc1: 26.8
- COc1ccc2oc(-c3ccc(Cl)cc3)c(N3CCN(C)CC3)c2c1: 3.06
- Cc1cc(Cl)ccc1Nc1nc(C(F)(F)F)ccc1C(=O)N/N=C/c1c(Cl)cccc1Cl: 2.44
- COc1ccc2cc(C(=O)/C=C/c3ccccc3OC)ccc2c1: 15.9
- Clc1ccc(CSCc2ccc(Cl)cc2Cl)c(Cl)c1: 97.9
- C[C@H]1[C@H](C)CC[C@]2(C(=O)O)CC[C@]3(C)C(=CC[C@@H]4[C@@]5(C)CC[C@H](OC(=O)/C=C\c6ccc(O)cc6)C(C)(C)[C@@H]5CC[C@]43C)[C@H]12: 14.3
- COc1cc2c3c(n(CCCN4CCOCC4)c(=O)c2cc1OC)-c1cc2c(cc1C3=O)OCO2: 12.2
- COc1ccc2c(c1)N(CCC1CCCCN1C)c1ccccc1S2 (stereo unspecified): 24.8
- N=c1c2c(=O)n3c(nc2nc2sc4ccc(Cl)cc4n12)-c1ccccc1Sc1ccccc1-3: 3.86
- O=C(Nc1cccc2ccccc12)c1cc2ccccc2cc1O: 3.69
- C=C1C(=O)O[C@H]2[C@H]3O[C@@H](C[C@@H]12)[C@](C)(O)CCCC(C)=CCC[C@H]3C: 31.1
- C#Cc1ccc(-n2c(/C=C/c3ccc4ccccc4n3)nc3ncccc3c2=O)cc1: 0.683
